molecular target: T1, rhodopsin (activation state not stated) (bovine, UniProt P02699 1-348); test: ELISA of lysates, OD450 with receptor minus without receptor
T1 construct: whole, on cells; same protein as m1; also called EDTA-washed rhodopsin
T1 sequence (P02699 whole entry): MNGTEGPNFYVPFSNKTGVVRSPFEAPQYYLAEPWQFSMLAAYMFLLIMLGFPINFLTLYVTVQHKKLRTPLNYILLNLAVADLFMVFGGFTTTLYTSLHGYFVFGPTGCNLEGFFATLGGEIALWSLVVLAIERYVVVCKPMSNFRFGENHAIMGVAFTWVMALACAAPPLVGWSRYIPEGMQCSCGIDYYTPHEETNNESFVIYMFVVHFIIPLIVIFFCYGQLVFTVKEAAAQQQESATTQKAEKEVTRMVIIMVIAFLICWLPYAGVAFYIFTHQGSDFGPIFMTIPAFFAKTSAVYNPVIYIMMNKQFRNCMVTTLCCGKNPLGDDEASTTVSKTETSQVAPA
Where no end group is shown, it is not given here.
Label scheme for ELISA: lower than 0.8 OD450 is Not met, 0.8 OD450 and above is Met.

Entry IVKNLEDCGLF (peptide, not shown: small tags and cut ends, also: fused to lysate carrier and linker, not given here) [L8 IVKNLEDCGLF] : is its ELISA no less than 0.8 OD450?
Not met

Param item: ILENLKDCGLF (peptide, not shown: small tags and cut ends, also: fused to fusion carrier of the lysate via linker, not given here) [L3 ILENLKDCGLF]
Met

Param item: LRENLKDCGLL (peptide, not shown: small tags and cut ends, also: fused to fusion carrier of the lysate via linker, not given here) [L14 LRENLKDCGLL]
Met

Param item: MLDNLKACGLF (peptide, not shown: small tags and cut ends, also: fused to lysate carrier and linker, not given here) [L4 MLDNLKACGLF]
Met
